test target: Bifunctional protein GlmU (Mycobacterium tuberculosis (strain ATCC 25618 / H37Rv)) (UniProt P9WMN3)
Sequence (P9WMN3 whole entry, looked up): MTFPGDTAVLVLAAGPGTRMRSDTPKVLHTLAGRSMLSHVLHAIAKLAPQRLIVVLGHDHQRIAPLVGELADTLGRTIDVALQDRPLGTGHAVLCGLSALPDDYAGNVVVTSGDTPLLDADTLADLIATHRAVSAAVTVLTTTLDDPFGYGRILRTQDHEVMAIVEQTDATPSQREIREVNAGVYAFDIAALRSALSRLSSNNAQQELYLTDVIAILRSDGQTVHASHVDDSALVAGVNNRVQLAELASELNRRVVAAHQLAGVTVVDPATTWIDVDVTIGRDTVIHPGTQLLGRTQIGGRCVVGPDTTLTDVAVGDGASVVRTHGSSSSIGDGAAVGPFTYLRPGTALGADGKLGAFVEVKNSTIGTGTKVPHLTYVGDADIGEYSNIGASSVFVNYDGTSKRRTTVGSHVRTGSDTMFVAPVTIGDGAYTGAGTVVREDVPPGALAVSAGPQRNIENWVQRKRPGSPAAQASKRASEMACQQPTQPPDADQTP
protocol description: inhibition of mycobacterial GlmU enzyme – biochemical, glucosamine-1-phosphate acetyltransferase (AID 1376);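 further: 0% = complete reaction with vehicle and 100% = reaction without substrate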
setup conditions: M. tuberculosis GlmU acetyltransferase enzyme assay; stronger effect = higher value;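 tested at 30 µM in the primary screen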
In all, about 220,000 compounds went through this assay and about 530 (0.24%) were called active. Only a selection was taken, and actives are over-represented in it overall. Potency and affinity values are given separately.
measured metric: inhibition (%)
Express your answer in %, writing the number without its unit.

Per the records, this compound ( `CCOc1ccc2c(c1)C(=O)c1cc(OCC(=O)O)ccc1-2` ) has inhibition equal to -3.72

Per the records, this compound ( `CCN(C(=O)CN1CCN(S(=O)(=O)c2ccccc2C(F)(F)F)CC1)c1c(N)n(Cc2ccccc2)c(=O)[nH]c1=O` ) has inhibition equal to -6.69

Per the records, this compound ( `Cc1ccc(-n2c(Cc3ccccc3)nnc2SCC(=O)NNC(=O)Cc2ccccc2)cc1` ) has inhibition equal to 2.04

Per the records, this compound ( `CC(C)(CNc1ccc([N+](=O)[O-])cc1Cl)CNS(C)(=O)=O` ) has inhibition equal to -2.7

Per the records, this compound ( `CCOC(=O)c1ccc(NC(=S)N2CCC(C(N)=O)CC2)cc1` ) has inhibition equal to 6.36

Per the records, this compound ( `O=C(CSc1nnc(-c2ccccc2Cl)n1Cc1ccco1)Nc1ccc2c(c1)OCCO2` ) has inhibition equal to -6.82

Per the records, this compound ( O=C1CC(N2CCN(Cc3ccc(Cl)cc3)CC2)C(=O)N1CCc1ccccc1 (stereo unspecified) ) has inhibition equal to -4.79

Per the records, this compound ( `CC(C)CCNc1nnnc2c1sc1nc(N3CCOCC3)c3c(c12)CC(C)(C)SC3` ) has inhibition equal to 2.31

Per the records, this compound ( `CN(C)c1ccc(/C=C/c2ccc3ccccc3[n+]2C)cc1` ) has inhibition equal to -0.66

Per the records, this compound ( `CN(C)c1ccc(/C=C/c2ccc3c4ccccc4ccc3[n+]2-c2ccccc2)cc1` ) has inhibition equal to 41

Per the records, this compound ( `O=C(N/N=C\c1ccccn1)C1c2ccccc2Oc2ccccc21` ) has inhibition equal to -4.47

Per the records, this compound ( CCCCn1c(SCC(=O)N2CCCCC2C)nc2cc(S(N)(=O)=O)ccc21 (stereo unspecified) ) has inhibition equal to -1.4

Per the records, this compound ( `COc1ccc(Cl)cc1S(=O)(=O)NC1CC(C)(C)NC(C)(C)C1` ) has inhibition equal to 4.3

Per the records, this compound ( `CC(C)=C1C(=O)NN(c2cccc(Cl)c2)C1=O` ) has inhibition equal to 3.03

Per the records, this compound ( `CNc1ccc(Br)cc(C(=O)/C=C/c2ccc(Cl)cc2Cl)c1=O` ) has inhibition equal to 10.2

Per the records, this compound ( `CCN(CC)C(=O)CSc1nc2ccccc2c(=O)n1CC` ) has inhibition equal to -0.44

Per the records, this compound ( CCOC(=O)C1(Cc2ccc(Cl)cc2)CCN(C(=O)C2CCCO2)CC1 (stereo unspecified) ) has inhibition equal to 1.7

Per the records, this compound ( COC(=O)C(O)(NC(=O)OCc1ccccc1)C(F)(F)F (stereo unspecified) ) has inhibition equal to 13.5

Per the records, this compound ( `Cc1ccnc(SCc2cn3c(C)cc(C)nc3n2)n1` ) has inhibition equal to -0.65

Per the records, this compound ( O=C(O)c1cccc2c1NC(c1cccc([N+](=O)[O-])c1)C1CC(Sc3ccccc3[N+](=O)[O-])C(Cl)C21 (stereo unspecified) ) has inhibition equal to 7.9

Per the records, this compound ( `COc1cc(S(=O)(=O)N2CCOCC2)ccc1NC(=O)CSc1nnc(N)s1` ) has inhibition equal to 10.7

Per the records, this compound ( `Cc1[nH]oc(=O)c1N=Nc1c(Cl)cccc1Cl` ) has inhibition equal to 1.64

Per the records, this compound ( CCOC(=O)CC1C(=O)NCCN1C(=O)Nc1ccccc1 (stereo unspecified) ) has inhibition equal to -2.01

Per the records, this compound ( CCOC(=O)C(NC(C)=O)(OCc1ccccc1)C(F)(F)F (stereo unspecified) ) has inhibition equal to 1.91

Per the records, this compound ( `Cc1[nH]oc(=O)c1N=Nc1ccccc1` ) has inhibition equal to 8.43

Per the records, this compound ( `COc1ccc(N)c2c1C(=O)c1ccccc1C2=O` ) has inhibition equal to 11.8

Per the records, this compound ( `CCS(=O)(=O)c1ccc(O)c(NC(=O)/C=C/c2ccc(Cl)cc2)c1` ) has inhibition equal to 0.22

Per the records, this compound ( `CCN(CC)C(=O)CSc1nc2ccccc2c(=O)n1CC1CCCCC1` ) has inhibition equal to 13.3

Per the records, this compound ( `O=C1CC(=O)N(c2cccc(F)c2)N1` ) has inhibition equal to 8.59

Per the records, this compound ( `COC(C[C@@H]1O[C@@H]1C(=O)[C@@H](C)OCc1ccccc1)OC` ) has inhibition equal to 14.7

Per the records, this compound ( CC(C)CNC(C)C(=O)Nc1ccc(S(N)(=O)=O)cc1 (stereo unspecified) ) has inhibition equal to -3.38

Per the records, this compound ( `COc1c(C)cc(S(=O)(=O)NC2CC(C)(C)NC(C)(C)C2)c(C)c1C` ) has inhibition equal to -0.79

Per the records, this compound ( `O=C(Nc1cccc([N+](=O)[O-])c1)c1ccccc1` ) has inhibition equal to -2.61

Per the records, this compound ( CC(OC(=O)c1cccs1)C(=O)NCc1cccs1 (stereo unspecified) ) has inhibition equal to -4.58

Per the records, this compound ( `O=C(CN(Cc1ccccc1)C(=O)c1cc2c(s1)CCC2)NCc1cccs1` ) has inhibition equal to 14.9

Per the records, this compound ( `Cc1cc(C)c(Nc2cc(S(=O)(=O)O)c(N)c3c2C(=O)c2ccccc2C3=O)c(C)c1` ) has inhibition equal to 17.5

###

test target: Bifunctional protein GlmU (Mycobacterium tuberculosis (strain ATCC 25618 / H37Rv)) (UniProt P9WMN3)
protocol description: inhibition of mycobacterial GlmU enzyme – biochemical, glucosamine-1-phosphate acetyltransferase (AID 1376);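 further: 0% = complete reaction with vehicle and 100% = reaction without substrate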
setup conditions: M. tuberculosis GlmU acetyltransferase enzyme assay;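 tested at 30 µM in the primary screen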
Among all 220,000 compounds or so, about 530 (0.24%) were called active. No stated cut-off is given here; in the data, active means inhibition above about 13%; inconclusive means no clear call, values can overlap the other calls; inactive means below that. This is one part of a sample in which actives are shown more often than they occur. Entries with a potency or affinity are not part of this list.
Hi there, use one of these labels in your reply, thanks! active, inactive

Could you check what this test reported for `O=C(CNc1cccc(C(F)(F)F)c1)N/N=C/c1cn(-c2ccccc2)nc1-c1ccccc1` ?
inactive

Could you check what this test reported for `CCNc1cc(Nc2c(C)n(C)n(-c3ccccc3)c2=O)c([N+](=O)[O-])c2nonc12` ?
inactive

Could you check what this test reported for `CCN(CC)S(=O)(=O)c1ccc(N2CCOCC2)c(NC(=O)Cc2ccccc2)c1` ?
inactive

Could you check what this test reported for `O=C(O)c1cccc2c1C(=O)c1ccccc1C2=O` ?
inactive

Could you check what this test reported for CCC1NC(=S)N(C2CCCCC2)C1=O (stereo not given) ?
inactive

Could you check what this test reported for `Nc1c(C(=O)N2CCOCC2)sc(=S)n1-c1ccccc1` ?
active

Could you check what this test reported for `O=C1NC(=Nc2ccc(O)cc2)S/C1=C\C=C\c1ccco1` ?
inactive

Could you check what this test reported for `Cc1ccc(/C=N/Nc2ccc(C(=O)O)cc2)o1` ?
inactive

Could you check what this test reported for `Cn1c(SCC(=O)c2ccc3c(c2)NC(=O)CO3)nc2ccccc21` ?
inactive

Could you check what this test reported for `CN(C)c1cc(Nc2cccc(O)c2)c([N+](=O)[O-])c2nonc12` ?
inactive

Could you check what this test reported for `Cc1ccc(NC(=O)CN2C(=O)N/C(=C/c3cc(C)n(-c4cccc(C(=O)O)c4)c3C)C2=O)cc1` ?
active

Could you check what this test reported for CC1CCc2c(sc3ncn(Cc4ccc(C(=O)O)cc4)c(=O)c23)C1 (stereo not given) ?
inactive

Could you check what this test reported for `Cc1c(Nc2cc(N3CCOCC3)c3nonc3c2[N+](=O)[O-])c(=O)n(-c2ccccc2)n1C` ?
inactive

Could you check what this test reported for `O=C(NC(=S)Nc1cc(S(=O)(=O)N2CCOCC2)ccc1N1CCOCC1)c1ccco1` ?
inactive

Could you check what this test reported for `CCOc1ccc(/C=C(\C#N)C(=O)Nc2cccnc2)cc1` ?
inactive

Could you check what this test reported for `O=[N+]([O-])c1cccc(/C=N/n2c(COc3ccccc3)n[nH]c2=S)c1` ?
inactive

Could you check what this test reported for `CNc1cc(Cl)c2nonc2c1[N+](=O)[O-]` ?
inactive

Could you check what this test reported for `CCOc1cccc(NC(=O)/C(C#N)=C/c2cccnc2)c1` ?
active

Could you check what this test reported for `Cc1cccc(NC(=O)CN2C(=O)N/C(=C\c3cccn3-c3cccc(C(=O)O)c3)C2=O)c1` ?
inactive

Could you check what this test reported for `O=C1C(=Cc2ccco2)C(=O)c2ccccc21` ?
inactive

The measured values listed here are drawn from PubChem BioAssay AID1376.
